Source: the supplement of paper PMC9103864

- Tested on: BMSC (primary human bone marrow mesenchymal stromal cells)
- MEASUREMENT PROTOCOL: absolute EC50 for viability; higher = less sensitive
The reader will find reported absolute EC50 for viability values listed item by item below.
READOUT LABEL: absolute EC50 for viability

In [3]: df
Out[3]:
                         structure_notation   result
0  C[C@@H]1COC(Nc2ccc3ncnc(Nc4ccc(OCc5nccs5)c(Cl)c4)c3c2)=N1  > 10 µM
1  CNc1ncc2cc(-c3cc(NC(=O)NCCC(C)(C)C)c(F)cc3C)c(C)nc2n1  > 10 µM
2  CC(C)(C#N)c1cc(Cn2cncn2)cc(C(C)(C)C#N)c1  > 10 µM
